# target-or-system: Thrombin (Bos taurus, UniProt P00735)
# Construct: purchased Sigma-Aldrich T4648
# protocol-description: thrombin inhibition assay
# Type: biochemical
# Design: key: - not active; */** small/medium activity; */** small/medium activity
# applied-conditions: highest concentration 45.4 μg/mL
readout-name: Enzyme Inhibition Thrombin (activity class)

CCCCCC(=O)N[C@@H](CC(=O)O)C(=O)N[C@@H]1C(=O)N[C@@H](CCCNC(=N)N)C(=O)N[C@H]2CC[C@@H](O)N(C2=O)[C@@H](Cc2ccccc2)C(=O)N(C)[C@@H](Cc2ccccc2)C(=O)N[C@@H](C(C)C)C(=O)O[C@@H]1C [CP 990, [Thr+Arg+Ahp+Phe+MePhe+Val]Asp+HA] ... -
CCCCCC(=O)N[C@@H](CC(=O)O)C(=O)N[C@@H]1C(=O)N[C@@H](CCCNC(=N)N)C(=O)N[C@H]2CC[C@@H](O)N(C2=O)[C@@H](Cc2ccccc2)C(=O)N(C)[C@@H](Cc2ccc(O)cc2)C(=O)N[C@@H](C(C)C)C(=O)O[C@@H]1C [CP 1006, [Thr+Arg+Ahp+Phe+MeTyr+Val]Asp+HA] ... -
CCCC(=O)NC(CC(=O)O)C(=O)NC1C(=O)NC(CCCNC(=N)N)C(=O)NC2CCC(O)N(C2=O)C(Cc2ccccc2)C(=O)N(C)C(Cc2ccccc2)C(=O)NC(C(C)C)C(=O)OC1C (stereo not shown) [CP 962, [Thr+Arg+Ahp+Phe+MePhe+Val]Asp+BA] ... -
CCCCCCCC(=O)N[C@@H](CC(=O)O)C(=O)N[C@@H]1C(=O)N[C@@H](CCCNC(=N)N)C(=O)N[C@H]2CC[C@@H](O)N(C2=O)[C@@H](Cc2ccccc2)C(=O)N(C)[C@@H](Cc2ccccc2)C(=O)N[C@@H](C(C)C)C(=O)O[C@@H]1C [CP 1018, [Thr+Arg+Ahp+Phe+MePhe+Val]Asp+OA] ... -

---

# target-or-system: elastase from porcine pancreas (Sus scrofa, UniProt P00772)
# Construct: purchased Sigma-Aldrich E0258; host or cells: porcine pancreas
# Sequence (P00772 27-266): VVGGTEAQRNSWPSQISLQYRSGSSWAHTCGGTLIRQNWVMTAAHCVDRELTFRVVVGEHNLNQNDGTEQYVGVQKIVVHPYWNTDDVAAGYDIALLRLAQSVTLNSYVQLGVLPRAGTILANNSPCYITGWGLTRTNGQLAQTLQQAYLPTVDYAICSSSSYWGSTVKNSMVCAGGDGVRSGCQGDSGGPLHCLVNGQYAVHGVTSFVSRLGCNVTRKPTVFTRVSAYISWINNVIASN
# protocol-description: elastase inhibition assay
# Assay type: biochemical
# Parameters: key: - not active; */** small/medium activity; */** small/medium activity
# applied-conditions: highest concentration 45.4 μg/mL
readout-name: Enzyme Inhibition Elastase (activity class)

CCCCCCCC(=O)N[C@@H](CC(=O)O)C(=O)N[C@@H]1C(=O)N[C@@H](CCCNC(=N)N)C(=O)N[C@H]2CC[C@@H](O)N(C2=O)[C@@H](Cc2ccccc2)C(=O)N(C)[C@@H](CCc2ccc(O)cc2)C(=O)N[C@@H](C(C)C)C(=O)O[C@@H]1C [CP 1048, [Thr+Arg+Ahp+Phe+MeHty+Val]Asp+OA] ... -
CCCCCC(=O)N[C@@H](CC(=O)O)C(=O)N[C@@H]1C(=O)N[C@@H](Cc2ccc(O)cc2)C(=O)N[C@H]2CC[C@@H](O)N(C2=O)[C@@H](Cc2ccccc2)C(=O)N(C)[C@@H](CCc2ccc(O)cc2)C(=O)N[C@@H](C(C)C)C(=O)O[C@@H]1C [CP 1027, [Thr+Tyr+Ahp+Phe+MeHty+Val]Asp+HA] ... -

---

# target-or-system: elastase from porcine pancreas (Sus scrofa)
# Construct: purchased Sigma-Aldrich E0258; host or cells: porcine pancreas
# protocol-description: elastase inhibition assay
# Format: biochemical
# Parameters: key: - not active; */** small/medium activity; */** small/medium activity
# applied-conditions: highest concentration 45.4 μg/mL
readout-name: Enzyme Inhibition Elastase (activity class)

CCCC(=O)NC(CC(=O)O)C(=O)NC1C(=O)NC(CCCNC(=N)N)C(=O)NC2CCC(O)N(C2=O)C(Cc2ccccc2)C(=O)N(C)C(Cc2ccccc2)C(=O)NC(C(C)C)C(=O)OC1C (centres unmarked) [CP 962, [Thr+Arg+Ahp+Phe+MePhe+Val]Asp+BA] ... -
CCCCCCCC(=O)N[C@@H](CC(=O)O)C(=O)N[C@@H]1C(=O)N[C@@H](CCCNC(=N)N)C(=O)N[C@H]2CC[C@@H](O)N(C2=O)[C@@H](Cc2ccccc2)C(=O)N(C)[C@@H](Cc2ccccc2)C(=O)N[C@@H](C(C)C)C(=O)O[C@@H]1C [CP 1018, [Thr+Arg+Ahp+Phe+MePhe+Val]Asp+OA] ... -

---

# target-or-system: α-chymotrypsin from bovine pancreas (Bos taurus, UniProt P00766)
# protocol-description: chymotrypsin inhibition assay
# Assay type: biochemical
# Parameters: key: - not active; */** small/medium activity; */** small/medium activity
# applied-conditions: class symbols
readout-name: Enzyme Inhibition Chymotrypsin (activity class)

CCCCCC(=O)N[C@@H](CC(=O)O)C(=O)N[C@@H]1C(=O)N[C@@H](Cc2ccc(O)cc2)C(=O)N[C@H]2CC[C@@H](O)N(C2=O)[C@@H](Cc2ccccc2)C(=O)N(C)[C@@H](Cc2ccc(O)cc2)C(=O)N[C@@H](C(C)C)C(=O)O[C@@H]1C [CP 1013, [Thr+Tyr+Ahp+Phe+MeTyr+Val]Asp+HA] ... **
CCCCCC(=O)N[C@@H](CC(=O)O)C(=O)N[C@@H]1C(=O)N[C@@H](CCCNC(=N)N)C(=O)N[C@H]2CC[C@@H](O)N(C2=O)[C@@H](Cc2ccccc2)C(=O)N(C)[C@@H](Cc2ccccc2)C(=O)N[C@@H](C(C)C)C(=O)O[C@@H]1C [CP 990, [Thr+Arg+Ahp+Phe+MePhe+Val]Asp+HA] ... -
CCCCCCCC(=O)N[C@@H](CC(=O)O)C(=O)N[C@@H]1C(=O)N[C@@H](CCCNC(=N)N)C(=O)N[C@H]2CC[C@@H](O)N(C2=O)[C@@H](Cc2ccccc2)C(=O)N(C)[C@@H](Cc2ccccc2)C(=O)N[C@@H](C(C)C)C(=O)O[C@@H]1C [CP 1018, [Thr+Arg+Ahp+Phe+MePhe+Val]Asp+OA] ... -
CCCC(=O)N[C@@H](CC(=O)O)C(=O)N[C@@H]1C(=O)N[C@@H](Cc2ccc(O)cc2)C(=O)N[C@H]2CC[C@@H](O)N(C2=O)[C@@H](Cc2ccccc2)C(=O)N(C)[C@@H](Cc2ccccc2)C(=O)N[C@@H](C(C)C)C(=O)O[C@@H]1C [CP 969, [Thr+Tyr+Ahp+Phe+MePhe+Val]Asp+BA] ... **
CCCCCC(=O)N[C@@H](CC(=O)O)C(=O)N[C@@H]1C(=O)N[C@@H](CCCNC(=N)N)C(=O)N[C@H]2CC[C@@H](O)N(C2=O)[C@@H](Cc2ccccc2)C(=O)N(C)[C@@H](Cc2ccc(O)cc2)C(=O)N[C@@H](C(C)C)C(=O)O[C@@H]1C [CP 1006, [Thr+Arg+Ahp+Phe+MeTyr+Val]Asp+HA] ... *

Exam item: Look up Enzyme Inhibition Chymotrypsin (activity class): CCCC(=O)NC(CC(=O)O)C(=O)NC1C(=O)NC(CCCNC(=N)N)C(=O)NC2CCC(O)N(C2=O)C(Cc2ccccc2)C(=O)N(C)C(Cc2ccccc2)C(=O)NC(C(C)C)C(=O)OC1C (centres unmarked) [CP 962, [Thr+Arg+Ahp+Phe+MePhe+Val]Asp+BA]
Marked response: -

Exam item: What about this compound? CCCCCCCC(=O)N[C@@H](CC(=O)O)C(=O)N[C@@H]1C(=O)N[C@@H](CCCNC(=N)N)C(=O)N[C@H]2CC[C@@H](O)N(C2=O)[C@@H](Cc2ccccc2)C(=O)N(C)[C@@H](CCc2ccc(O)cc2)C(=O)N[C@@H](C(C)C)C(=O)O[C@@H]1C [CP 1048, [Thr+Arg+Ahp+Phe+MeHty+Val]Asp+OA]
Marked response: *

Exam item: What about this compound? CCCC(=O)N[C@@H](CC(=O)O)C(=O)N[C@@H]1C(=O)N[C@@H](Cc2ccc(O)cc2)C(=O)N[C@H]2CC[C@@H](O)N(C2=O)[C@@H](Cc2ccccc2)C(=O)N(C)[C@@H](CCc2ccc(O)cc2)C(=O)N[C@@H](C(C)C)C(=O)O[C@@H]1C [CP 999, [Thr+Tyr+Ahp+Phe+MeHty+Val]Asp+BA]
Marked response: **

Value source: paper PMC6070996
